// reported logD per item
Measurement Protocol: Octanol-phosphate buffer partition coefficient, log D of the compound at pH 7.4 by LC/MS/UV analysis
Protocol Conditions: octanol/phosphate buffer
The answer should be written as a number, with no unit following it.

Compound Smiles: COc1ccc2ncc(=O)n(CCN3CCC(NCc4cc5c(cn4)OCCO5)CC3)c2c1
Measured Number: 0.93
--
Compound Smiles: COc1ccc2ccc(=O)n(CCN3CCC(NCc4cc5c(cn4)OCCO5)CC3)c2n1
Measured Number: 1.16

Continue with the molecule presented below.
logD in this record for COc1ccc2c(c1)N(CCN1CCC(NCc3ccc4c(n3)NC(=O)CO4)CC1)C(=O)CO2 : 0.87

* * *

Test system: Pseudomonas aeruginosa
Measurement Protocol: Antibacterial activity against Pseudomonas aeruginosa PAO1 after 18 to 24 hrs by broth microdilution method
Format: functional
Consider the following compounds and their measured MIC readings.

Worked cases, MIC given:
Compound Smiles: COc1ccc2c(c1)N(CCN1CCC(NCc3ccc4c(n3)NC(=O)CO4)CC1)C(=O)OC2
Result: 4 µg/mL
//
Compound Smiles: COc1ccc2c(C)cc(=O)n(CCN3CCC(NCc4cc5c(cn4)OCCO5)CC3)c2c1
Result: > 8 µg/mL
//
Compound Smiles: COc1ccc2c(C)nc(=O)n(CCN3CCC(NCc4cc5c(cn4)OCCO5)CC3)c2c1
Result: > 8 µg/mL
//
Compound Smiles: COc1ncc2ccc(=O)n(CCN3CCC(NCc4cc5c(cn4)OCCO5)CC3)c2n1
Result: > 8 µg/mL

Now, please, on to the next compound.
The value of MIC measured for the compound COc1cc2c(ccc(=O)n2CCN2CCC(NCc3cc4c(cn3)OCCO4)CC2)cn1 turned out to be > 8 µg/mL

* * *

Measurement Protocol: Half life in Wistar Han rat at 4 mg/kg, iv
Assay type: ADME, organism-based
Design: dose 4 mg/kg, route intravenous
Protocol Conditions: in vivo
Measurement Type: half-life (h)
Give the number; h is assumed, so skip it.

Given item COc1ccc2ncc(=O)n(CCN3CCC(NCc4cc5c(cn4)OCCO5)CC3)c2c1 , the value recorded as its half-life is 2.8

* * *

Measurement Protocol: Half life in Wistar Han rat at 3 mg/kg, iv
Assay type: ADME, organism-based
Design: dose 3 mg/kg, route intravenous
Protocol Conditions: in vivo
Measurement Type: half-life (min)
Answer in min, number only, no unit symbol.

# half-life of N#Cc1ccc2c(c1)N(CCN1CCC(NCc3ccc4c(n3)NC(=O)CO4)CC1)C(=O)CO2 = 348

* * *

Measured pIC50 accompanies every entry in the list below.
Tested On: Voltage-gated inwardly rectifying potassium channel KCNH2 (Homo sapiens)
Sequence (Q12809 whole entry): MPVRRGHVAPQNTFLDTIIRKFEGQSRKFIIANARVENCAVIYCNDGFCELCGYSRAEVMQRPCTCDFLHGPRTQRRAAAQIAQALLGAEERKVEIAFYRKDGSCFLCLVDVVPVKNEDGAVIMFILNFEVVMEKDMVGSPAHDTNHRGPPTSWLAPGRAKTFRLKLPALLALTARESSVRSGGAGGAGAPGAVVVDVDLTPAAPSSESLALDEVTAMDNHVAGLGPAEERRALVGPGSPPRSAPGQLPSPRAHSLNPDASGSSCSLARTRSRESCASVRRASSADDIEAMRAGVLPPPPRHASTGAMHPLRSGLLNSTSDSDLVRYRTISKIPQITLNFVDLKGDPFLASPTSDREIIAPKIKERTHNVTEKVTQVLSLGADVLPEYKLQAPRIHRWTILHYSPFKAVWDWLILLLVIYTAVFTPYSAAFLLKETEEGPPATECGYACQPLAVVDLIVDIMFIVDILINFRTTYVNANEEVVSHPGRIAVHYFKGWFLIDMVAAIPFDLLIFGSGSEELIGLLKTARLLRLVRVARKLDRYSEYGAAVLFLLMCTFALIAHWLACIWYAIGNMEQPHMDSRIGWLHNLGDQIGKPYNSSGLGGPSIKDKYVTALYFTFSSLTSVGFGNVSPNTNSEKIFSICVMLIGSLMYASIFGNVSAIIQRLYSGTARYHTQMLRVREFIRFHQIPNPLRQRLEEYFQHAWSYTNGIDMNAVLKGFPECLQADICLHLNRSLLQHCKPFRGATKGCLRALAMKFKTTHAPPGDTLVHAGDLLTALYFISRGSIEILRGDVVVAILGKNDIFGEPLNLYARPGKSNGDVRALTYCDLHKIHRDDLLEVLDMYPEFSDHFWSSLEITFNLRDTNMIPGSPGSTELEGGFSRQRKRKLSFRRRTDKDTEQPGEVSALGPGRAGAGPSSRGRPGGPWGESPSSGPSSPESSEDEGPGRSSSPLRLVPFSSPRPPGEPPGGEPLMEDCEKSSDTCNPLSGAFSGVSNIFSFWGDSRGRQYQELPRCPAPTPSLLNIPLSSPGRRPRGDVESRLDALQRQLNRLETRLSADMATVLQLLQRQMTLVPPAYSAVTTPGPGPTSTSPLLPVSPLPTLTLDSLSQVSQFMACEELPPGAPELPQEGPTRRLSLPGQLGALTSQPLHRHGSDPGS
Just so you know, pIC50 here is -log10 of the concentration in molar units; reply with that number alone.

Please review the following examples before continuing.
Compound Smiles: COc1ccc2ncc(=O)n(CCN3CCC(NCc4cc5c(cn4)OCCO5)CC3)c2c1
Measurement Type: pIC50
Measured Number: 4.72
//
Compound Smiles: COc1ccc2ccc(=O)n(CCN3CCC(NCc4cc5c(cn4)OCCO5)CC3)c2n1
Measurement Type: pIC50
Measured Number: 4.40
//
Compound Smiles: COc1ccc2c(c1)N(CCN1CCC(NCc3cc4c(cn3)OCCO4)CC1)C(=O)CO2
Measurement Type: pIC50
Measured Number: 4.89
//
Compound Smiles: COc1ncc2ncc(=O)n(CCN3CCC(NCc4cc5c(cn4)OCCO5)CC3)c2n1
Measurement Type: pIC50
Measured Number: 4.09
//
Compound Smiles: COc1ccc2c(C)cc(=O)n(CCN3CCC(NCc4cc5c(cn4)OCCO5)CC3)c2c1
Measurement Type: pIC50
Measured Number: 4.64

# ---- query compound ----
Sample COc1ncc2ccc(=O)n(CCN3CCC(NCc4cc5c(cn4)OCCO5)CC3)c2n1 ; pIC50 observed: 3.69

* * *

Measurement Protocol: Octanol-phosphate buffer partition coefficient, log D of the compound at pH 7.4 by LC/MS/UV analysis
Protocol Conditions: octanol/phosphate buffer
Measurement Type: logD
Please give only the number in your answer, with no unit.

In the examples that follow, each entry is paired with its recorded logD.
Compound Smiles: COc1ccc2c(C)cc(=O)n(CCN3CCC(NCc4cc5c(cn4)OCCO5)CC3)c2c1
logD: 1.72

Compound Smiles: O=C1COc2ccccc2N1CCN1CCC(NCc2cc3c(cn2)OCCO3)CC1
logD: 1.04

COc1ccc2c(c1)N(CCN1CCC(NCc3ccc4c(n3)NC(=O)CO4)CC1)C(=O)CC2 has a reported logD of 0.66

Sample COc1ccc2c(c1)N(CCN1CCC(NCc3cc4c(cn3)OCCO4)CC1)C(=O)CO2 ; logD observed: 1.24

Please fill in: logD reported for COc1ccc2ncc(F)c(CCN3CCC(NCc4ccc5c(n4)NC(=O)CO5)CC3)c2n1 = 1.78

* * *

Measurement Protocol: Volume of distribution in Wistar Han rat at 4 mg/kg, iv
Assay type: ADME, organism-based
Set-up: dose 4 mg/kg, route intravenous
Protocol Conditions: in vivo
Measurement Type: Vd (L/kg)
Give the value, in units of L/kg, as a plain number.

The recorded Vd for entry COc1ccc2ncc(=O)n(CCN3CCC(NCc4cc5c(cn4)OCCO5)CC3)c2c1 equals 32

* * *

The reader will find reported fraction unbound at 16 h, 10 µM values listed item by item below.
Measurement Protocol: Fraction unbound in human plasma at 10 uM after 16 hrs by equilibrium dialysis
Lab note: record the figure alone, no unit after it.

See these solved cases before continuing.
Compound Smiles: COc1ccc2ncc(F)c(CCN3CCC(NCc4ccc5c(n4)NC(=O)CO5)CC3)c2n1
Measured Number: 0.06
--
Compound Smiles: COc1ccc2c(c1)N(CCN1CCC(NCc3ccc4c(n3)NC(=O)CO4)CC1)C(=O)CO2
Measured Number: 0.11
--
Compound Smiles: COc1ccc2c(c1)N(CCN1CCC(NCc3cc4c(cn3)OCCO4)CC1)C(=O)CS2
Measured Number: 0.09
--
Compound Smiles: COc1ccc2c(c1)N(CCN1CCC(NCc3cc4c(cn3)OCCO4)CC1)C(=O)CO2
Measured Number: 0.18
--
Compound Smiles: COc1ccc2ccc(=O)n(CCN3CCC(NCc4cc5c(cn4)OCCO5)CC3)c2n1
Measured Number: 0.31
--
Compound Smiles: COc1ccc2ncc(F)c(CCN3CCC(NCc4cc5c(cn4)OCCO5)CC3)c2n1
Measured Number: 0.17
--
Compound Smiles: COc1ccc2ncc(=O)n(CCN3CCC(NCc4cc5c(cn4)OCCO5)CC3)c2c1
Measured Number: 0.57
--
Compound Smiles: O=C1COc2ccccc2N1CCN1CCC(NCc2cc3c(cn2)OCCO3)CC1
Measured Number: 0.26

Record COc1ncc2ccc(=O)n(CCN3CCC(NCc4cc5c(cn4)OCCO5)CC3)c2n1 . Reported fraction unbound at 16 h, 10 µM: 0.27

* * *

Test system: Pseudomonas aeruginosa
Measurement Protocol: Antibacterial activity against Pseudomonas aeruginosa PAO1 after 18 to 24 hrs by broth microdilution method
Format: functional
Measurement Type: MIC (µg/mL)
The figure you give is taken to be in µg/mL; do not add the unit.

Compound Smiles: COc1ccc2ncc(F)c(CCN3CCC(NCc4cc5c(cn4)OCCO5)CC3)c2n1
MIC / µg/mL: 4

API: the following record is the query input.
Measured MIC (Pseudomonas aeruginosa), entry COc1ccc2ncc(F)c(CCN3CCC(NCc4ccc5c(n4)NC(=O)CO5)CC3)c2n1 : 1

* * *

Measurement Protocol: Half life in Beagle dog at 3 mg/kg, iv
Format: ADME, organism-based, Canis lupus familiaris
Design: dose 3 mg/kg, route intravenous
Protocol Conditions: in vivo
Measurement Type: half-life (h)
I only need the number, in h, no unit after it.

Compound Smiles: COc1ccc2ncc(=O)n(CCN3CCC(NCc4cc5c(cn4)OCCO5)CC3)c2c1
half-life / h: 8.3

Let us examine a further case.
# half-life of N#Cc1ccc2c(c1)N(CCN1CCC(NCc3ccc4c(n3)NC(=O)CO4)CC1)C(=O)CO2 = 166

* * *

Measurement Protocol: Volume of distribution in Wistar Han rat at 3 mg/kg, iv
Type: ADME, organism-based
Set-up: dose 3 mg/kg, route intravenous
Protocol Conditions: in vivo
Measurement Type: Vd (L/kg)
# value in L/kg; strip the unit string

Value of Vd reported for the compound N#Cc1ccc2c(c1)N(CCN1CCC(NCc3ccc4c(n3)NC(=O)CO4)CC1)C(=O)CO2 is 23

* * *

Measurement Protocol: AUC in Wistar Han rat at 3 mg/kg, iv
Type: ADME, organism-based
Design: dose 3 mg/kg, route intravenous
Protocol Conditions: plasma
Measurement Type: AUC
Could you give the number and then its unit, please?

The molecule listed as N#Cc1ccc2c(c1)N(CCN1CCC(NCc3ccc4c(n3)NC(=O)CO4)CC1)C(=O)CO2 shows AUC equal to 640 ng·h/mL

* * *

Measurement Protocol: Octanol-phosphate buffer partition coefficient, log D of the compound at pH 7.4 by LC/MS/UV analysis
Protocol Conditions: octanol/phosphate buffer
Measurement Type: logD
Answer as a number with no unit attached.

Consider the worked cases shown below.
Compound Smiles: COc1ccc2c(c1)N(CCN1CCC(NCc3ccc4c(n3)NC(=O)CO4)CC1)C(=O)OC2
logD: 0.5

Compound Smiles: COc1ccc2ncc(=O)n(CCN3CCC(NCc4cc5c(cn4)OCCO5)CC3)c2n1
logD: 0.83

Compound Smiles: COc1ncc2ccc(=O)n(CCN3CCC(NCc4cc5c(cn4)OCCO5)CC3)c2n1
logD: 0.2

Compound Smiles: COc1ccc2ccc(=O)n(CCN3CCC(NCc4cc5c(cn4)OCCO5)CC3)c2c1
logD: 1.32

Noted for O=C1COc2ccc(CNC3CCN(CCN4C(=O)COc5ccc(F)cc54)CC3)nc2N1 : its logD reads 0.9

Measured logD of COc1ncc2ncc(=O)n(CCN3CCC(NCc4cc5c(cn4)OCCO5)CC3)c2n1 : 0.14
